# TARGET OR SYSTEM: T1, recombinant human FGF23 (R179Q) (human, UniProt Q9GZV9 25-251)
# T1 construct: also called rhFGF23(R179Q); hFGF23(R179Q)
# T1 sequence (looked up): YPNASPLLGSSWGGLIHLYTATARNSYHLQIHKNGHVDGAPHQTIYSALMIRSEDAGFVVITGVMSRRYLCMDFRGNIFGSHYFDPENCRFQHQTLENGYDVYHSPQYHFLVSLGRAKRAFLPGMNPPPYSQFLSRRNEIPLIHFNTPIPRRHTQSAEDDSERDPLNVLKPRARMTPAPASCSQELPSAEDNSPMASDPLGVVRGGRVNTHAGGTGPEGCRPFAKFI
# RUN DESCRIPTION: SPR, antibody captured on hIgG chip, rhFGF23(R179Q) analyte
The threshold is inclusive: SA (surface activity) of exactly 90% counts as Fulfilled; values below receive Not fulfilled.

1) UGX135 (antibody, human IgG1, kappa, V domains shown, also called LC:N92D) VH: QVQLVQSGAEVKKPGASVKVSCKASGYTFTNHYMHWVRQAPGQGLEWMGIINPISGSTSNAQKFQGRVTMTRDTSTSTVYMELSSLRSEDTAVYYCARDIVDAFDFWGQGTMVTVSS VL: AIQLTQSPSSLSASVGDRVTITCRASQGISSALVWYQQKPGKAPKLLIYDASSLESGVPSRFSGSGSGTDFTLTISSLQPEDFATYYCQQFDDYFTFGPGTKVDIKR :: Fulfilled
2) UGX166 (antibody, human IgG1, kappa, V domains shown, also called UGX068; HC:S59Y) VH: QVQLVQSGAEVKKPGASVKVSCKASGYTFTNHYMHWVRQAPGQGLEWMGIINPISGSTYNAQKFQGRVTMTRDTSTSTVYMELSSLRSEDTAVYYCARDIVDAFDFWGQGTMVTVSS VL: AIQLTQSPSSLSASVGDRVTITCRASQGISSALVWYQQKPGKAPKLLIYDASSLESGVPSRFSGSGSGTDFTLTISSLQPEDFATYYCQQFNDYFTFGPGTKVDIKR :: Fulfilled
3) UGX127 (antibody, human IgG1, kappa, V domains shown, also called UGX017; LC:S52E) VH: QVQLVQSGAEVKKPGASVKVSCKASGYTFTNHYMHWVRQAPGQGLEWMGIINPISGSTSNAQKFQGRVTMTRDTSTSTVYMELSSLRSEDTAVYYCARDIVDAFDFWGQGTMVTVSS VL: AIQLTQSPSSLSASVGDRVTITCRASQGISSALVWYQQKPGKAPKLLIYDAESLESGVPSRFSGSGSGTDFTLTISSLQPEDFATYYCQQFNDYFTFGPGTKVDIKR :: Not fulfilled
4) UGX139 (antibody, human IgG1, kappa, V domains shown, also called UGX038; LC:N92Y) VH: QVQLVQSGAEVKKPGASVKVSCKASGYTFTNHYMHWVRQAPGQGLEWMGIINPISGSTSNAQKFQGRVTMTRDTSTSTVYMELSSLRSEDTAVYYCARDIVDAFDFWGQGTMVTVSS VL: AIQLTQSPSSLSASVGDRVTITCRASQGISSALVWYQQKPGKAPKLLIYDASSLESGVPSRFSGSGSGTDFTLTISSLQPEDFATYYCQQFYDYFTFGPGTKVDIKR :: Not fulfilled
5) UGX137 (antibody, human IgG1, kappa, V domains shown, also called UGX035; LC:N92F) VH: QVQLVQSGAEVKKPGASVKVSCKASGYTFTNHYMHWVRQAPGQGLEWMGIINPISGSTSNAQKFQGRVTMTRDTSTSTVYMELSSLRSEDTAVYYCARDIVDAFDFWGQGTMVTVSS VL: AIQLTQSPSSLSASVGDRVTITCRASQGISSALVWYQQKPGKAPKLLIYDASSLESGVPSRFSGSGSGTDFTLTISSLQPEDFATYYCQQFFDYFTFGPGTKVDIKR :: Not fulfilled
6) UGX131 (antibody, human IgG1, kappa, V domains shown, also called LC:S53F) VH: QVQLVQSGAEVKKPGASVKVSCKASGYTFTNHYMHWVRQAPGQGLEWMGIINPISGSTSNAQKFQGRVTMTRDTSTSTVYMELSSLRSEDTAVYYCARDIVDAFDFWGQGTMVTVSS VL: AIQLTQSPSSLSASVGDRVTITCRASQGISSALVWYQQKPGKAPKLLIYDASFLESGVPSRFSGSGSGTDFTLTISSLQPEDFATYYCQQFNDYFTFGPGTKVDIKR :: Fulfilled
7) UGX161 (antibody, human IgG1, kappa, V domains shown, also called HC:S59I) VH: QVQLVQSGAEVKKPGASVKVSCKASGYTFTNHYMHWVRQAPGQGLEWMGIINPISGSTINAQKFQGRVTMTRDTSTSTVYMELSSLRSEDTAVYYCARDIVDAFDFWGQGTMVTVSS VL: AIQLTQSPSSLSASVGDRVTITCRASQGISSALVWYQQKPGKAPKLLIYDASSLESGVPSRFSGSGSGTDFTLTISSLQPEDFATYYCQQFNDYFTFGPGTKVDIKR :: Not fulfilled
8) UGX126 (antibody, human IgG1, kappa, V domains shown, also called LC:S52D; S52D) VH: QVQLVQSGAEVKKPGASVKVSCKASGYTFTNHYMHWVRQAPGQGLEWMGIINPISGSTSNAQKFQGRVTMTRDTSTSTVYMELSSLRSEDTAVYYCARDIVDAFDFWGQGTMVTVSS VL: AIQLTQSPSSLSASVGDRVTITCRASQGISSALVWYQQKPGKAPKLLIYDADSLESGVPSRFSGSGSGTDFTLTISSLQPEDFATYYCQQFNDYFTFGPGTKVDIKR :: Not fulfilled
